tested on: HL005PA1 strain (RT4); assay: MIC by broth microdilution method, HL005PA1 strain; format: cell-based, Propionibacterium acnes; details: Cutibacterium acnes, PA1; Example 6, method as Example 1; read-out: MIC against acne bacterium strain HL005 PA1 strain (RT4)
ASSAY_ENDPOINT: MIC (µg/mL)

# count of solved cases: 2
The reported value for CCCCCCCCCCCCCCC(=O)O in terms of MIC is 3.9

The reported value for CCCCCCCCCCCCCCCC(=O)O in terms of MIC is 62.5

P. CCCCCCCCCCCCCCCCC(=O)O
Q. CCCCCCCCCCCCCC(=O)O
I need your help: which of the pair P , Q has higher MIC? Indicate which entry you chose by stating its label. P
(P: 62.5 µg/mL, Q: 31.3 µg/mL)

====

system: HL045PA1 strain (RT4); assay: MIC by broth microdilution method, HL045PA1 strain; assay type: cell-based, Propionibacterium acnes; conditions: Cutibacterium acnes, PA1; Example 6, method as Example 1; read-out: MIC against acne bacterium strain HL045 PA1 strain (RT4)
ASSAY_ENDPOINT: MIC (µg/mL)

The reported value for CCCCCCCCCCCCCCCCC(=O)O in terms of MIC is 125

The reported value for CCCCCCCCCCCCCC(=O)O in terms of MIC is 31.3

I. CCCCCCCCCCCCCCCC(=O)O
II. CCCCCCCCCCCCCCC(=O)O
I need your help: which of the pair I , II has higher MIC? Indicate which entry you chose by stating its label. I
(I: 250 µg/mL, II: 3.9 µg/mL)

====

Test system: HL056PA1 strain (RT4)
Assay: MIC by broth microdilution method, HL056PA1 strain
Assay type: cell-based, Propionibacterium acnes
Settings: Cutibacterium acnes, PA1; Example 6, method as Example 1; read-out: MIC against acne bacterium strain HL056 PA1 strain (RT4)
Description: The antibacterial activity of a test substance was determined based on the minimum inhibitory concentration (MIC). An MIC was measured according to the broth microdilution method which is the standard method of Japanese Society of Chemotherapy. […]
ASSAY_ENDPOINT: MIC (mg/L)

A. CCCCCCCCCCCCCCCC(=O)O [Palmitic acid (C16:0), Palmitic acid]
B. CCCCCCCCCCCCCCCCC(=O)O [Heptadecanoic acid (C17:0), Heptadecanoic acid]
C. CCCCCCCCCCCCCC(=O)O [Myristic acid (C14:0), Myristic acid]
D. CCCCCCCCCCCCCCC(=O)O [Pentadecanoic acid (C15:0), Pentadecanoic acid]
Put the entries in order of MIC, starting with the largest number. # list labels per requested ordering A, B, C, D
(A: 500 mg/L, B: 250 mg/L, C: 125 mg/L, D: 3.9 mg/L)

====

test system: HL053PA1 strain (RT4) and HL043PA1 strain (RT5) versus HL110PA3 strain (RT6); assay: Strain-selective antibacterial activity (average of MICRT6/MICRT4 and MICRT6/MICRT5); assay type: cell-based, Propionibacterium acnes; conditions: control antibiotics, Comparative Example 2; for LOD calculated using 0.48 ng/mL as MIC of the RT6 strain
Below, each entry is listed with its recorded Strain-selective antibacterial activity.

# count of solved cases: 3
The reported value for CN(C)c1ccc(O)c2c1C[C@H]1C[C@H]3[C@H](N(C)C)C(O)=C(C(N)=O)C(=O)[C@@]3(O)C(O)=C1C2=O [Minocycline, reference compound] in terms of Strain-selective antibacterial activity is <1.5 × 10^−3

The reported value for C[C@H]1c2cccc(O)c2C(=O)C2=C(O)[C@]3(O)C(=O)C(C(N)=O)=C(O)[C@@H](N(C)C)[C@@H]3[C@@H](O)[C@@H]21 [Doxycycline, reference compound] in terms of Strain-selective antibacterial activity is 3.6 × 10^−4

The reported value for CCC[C@@H]1C[C@@H](C(=O)N[C@@H]([C@H]2O[C@H](SC)[C@H](O)[C@@H](O)[C@H]2O)[C@H](C)Cl)N(C)C1 [Clindamycin, reference compound] in terms of Strain-selective antibacterial activity is 7.5 × 10^−4

Turning now to a further record.
The reported value for CC1CCc2c(N3CCC(O)CC3)c(F)cc3c(=O)c(C(=O)O)cn1c23 (stereo not shown) [Nadifloxacin, reference compound] in terms of Strain-selective antibacterial activity is <1.5 × 10^−2
